ASSAY_SYSTEM: human SOS1 (nucleotide exchange of K-Ras^G12C) (Homo sapiens)
PROTOCOL_DESCRIPTION: Biochemical assay 2: K-Ras^G12C activation assay by hSOS1 at high GTP concentration (HTRF)
REPORTED_CONDITIONS: high GTP; read-out: Assay 2 (KRAS-Activation by SOS high GTP) activity expressed as IC50
OBSERVATION_TYPE: pIC50
pIC50 here is simply -log10 of the concentration when that concentration is written in mol/L.

Examples with their reported pIC50 follow.
INSERT INTO measurements (compound, assay_system, observation_type, quantitative_readout) VALUES
  ('COc1cc2nc(C)nc(N[C@@H](C)c3ccc(-c4c(C)noc4C)s3)c2cc1OC (racemic)', 'human SOS1 (nucleotide exchange of K-Ras^G12C) (Homo sapiens)', 'pIC50', 6.12),
  ('COc1cc2nc(C)nc(N[C@H](C)c3cccc(-c4c(C)noc4C)c3)c2cc1OC', 'human SOS1 (nucleotide exchange of K-Ras^G12C) (Homo sapiens)', 'pIC50', 5.90),
  ('COc1cc2nc(C)nc(N[C@@H](C)c3ccc(-c4ccccc4S(C)(=O)=O)s3)c2cc1OC (racemic)', 'human SOS1 (nucleotide exchange of K-Ras^G12C) (Homo sapiens)', 'pIC50', 5.47);

Please report pIC50 for the following compound: COc1cc2nc(C)nc(N[C@H](C)c3cccc(-c4cn[nH]c4C)c3)c2cc1OC 6.43

Please report pIC50 for the following compound: COc1cc2nc(C)nc(NC(C)c3ccc(-c4ccc(Cl)cc4CN(C)C)s3)c2cc1OC (centres unmarked) 7.14

These data points were gathered from patent US20240083857A1.
